The measurements presented in this section are drawn from patent US10766865B2.

Target: PKM2 (Homo sapiens, UniProt P14618)
Sequence (P14618 whole entry): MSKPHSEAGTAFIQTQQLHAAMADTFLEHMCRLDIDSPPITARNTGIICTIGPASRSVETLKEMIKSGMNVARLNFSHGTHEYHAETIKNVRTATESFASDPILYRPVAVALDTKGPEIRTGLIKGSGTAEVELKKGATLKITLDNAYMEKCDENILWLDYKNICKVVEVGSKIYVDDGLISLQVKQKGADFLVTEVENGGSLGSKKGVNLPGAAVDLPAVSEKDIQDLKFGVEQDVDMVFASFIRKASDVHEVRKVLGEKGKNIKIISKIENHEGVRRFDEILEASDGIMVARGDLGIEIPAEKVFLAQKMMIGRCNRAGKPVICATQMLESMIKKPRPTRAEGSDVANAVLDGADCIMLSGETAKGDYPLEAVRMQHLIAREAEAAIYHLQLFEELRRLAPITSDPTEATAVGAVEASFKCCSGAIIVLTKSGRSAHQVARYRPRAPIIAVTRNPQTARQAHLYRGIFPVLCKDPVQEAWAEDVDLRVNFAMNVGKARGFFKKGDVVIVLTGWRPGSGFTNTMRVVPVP
Assay: PKM2 Biochemical Assay
Conditions: % maximum response in a biochemical assay as compared with Fructose 1,6-bisphosphate
testReadout: Max. Resp. (%)

Below are worked cases with known answers.
1) O=C(c1cc(C(F)(F)F)n[nH]1)N(CCN1CCCC1)Cc1ccccc1Cl; 100
2) O=C(c1cc(C(F)(F)F)n[nH]1)N(CCN1CCCCCC1)Cc1ccccc1F; 100
3) O=C(c1cc(C(F)(F)F)n[nH]1)N(CCC1CCS(=O)(=O)C1)Cc1cccnc1 (centres unmarked); 24
4) CN1CCN(CCN(Cc2ccccc2Cl)C(=O)c2cc(C(F)(F)F)n[nH]2)CC1; 63

A = CC1CCCCN1CCN(Cc1ccccc1F)C(=O)c1cc(C(F)(F)F)n[nH]1 (centres unmarked)
B = O=C(c1cc(C(F)(F)F)n[nH]1)N(Cc1ccccc1Cl)CC1CCS(=O)(=O)CC1
C = O=C(c1cc(C(F)(F)F)n[nH]1)N(Cc1ccccc1Cl)CC1COC1
D = O=C(c1cc(C(F)(F)F)n[nH]1)N(Cc1ccccc1F)CC1COC1
Would you mind ranking these compounds by ascending Max. Resp.? Sort the labels as requested; that list is your answer.
B, C, D, A
(B: 22%, C: 47%, D: 70%, A: 100%)

---

Biological target: PKM2 (Homo sapiens, UniProt P14618)
Assay: PKM2 Biochemical Assay
Settings: % maximum response in a biochemical assay as compared with Fructose 1,6-bisphosphate
testReadout: Max. Resp. (%)

Example cases with answers are listed next.
1. O=C(c1cc(C(F)(F)F)n[nH]1)N(CCN1CCCCCC1)Cc1cccc2nc[nH]c12; 100
2. COc1ccc(N)cc1CN(CCN1CCCCCC1)C(=O)c1cc(C(F)(F)F)n[nH]1; 100
3. CCN(CC)CCN(Cc1cccc(F)c1Cl)C(=O)c1cc(C(F)(F)F)n[nH]1; 100
4. O=C(c1cc(C(F)(F)F)n[nH]1)N(CCC1CCOCC1)Cc1ccccc1F; 118
5. CCN(CC)CCN(Cc1cccc2[nH]ccc12)C(=O)c1cc(C(F)(F)F)n[nH]1; 100
6. CO[C@H]1CC[C@H](N(Cc2cccc(N)c2)C(=O)c2cc(C(F)(F)F)n[nH]2)CC1; 93

P = CCOCCN(Cc1ccc(O)cc1F)C(=O)c1cc(C(F)(F)F)n[nH]1
Q = O=C(c1cc(C(F)(F)F)n[nH]1)N(CCC1CCNCC1)Cc1ccccc1F
Of the two listed items, P and Q , which carries the larger Max. Resp. figure? Answer = label.
P

---

System: A549 cells
Experiment: Cell Proliferation Assay, A549
Type: cell-based
Conditions: Homo sapiens; A549, BME media lacking nonessential amino acids, 72 hours, ATPlite; read-out: Percent viability (EC50), Average
pEC50: −log10 of the molar value.
testReadout: pEC50

1 = Nc1cccc(Cl)c1CN(CCN1CCC(O)C1)C(=O)c1cc(C(F)(F)F)n[nH]1 (centres unmarked)
2 = O=C(c1cc(C(F)(F)F)n[nH]1)N(CCC1CCS(=O)(=O)CC1)Cc1ccccc1Cl
3 = O=C(c1cc(C(F)(F)F)n[nH]1)N(Cc1ccccc1Cl)CC1CCN1 (centres unmarked)
4 = Nc1cccc(Cl)c1CN(CCN1CCCC(F)C1)C(=O)c1cc(C(F)(F)F)n[nH]1 (centres unmarked)
Rank the items above by pEC50, largest value first. Submit the labels in the order that the ranking request calls for.
4, 1, 2, 3
(4: 8.09, 1: 7.34, 2: 6.83, 3: 6.03)
